TEST PROTOCOL: IV pharmacokinetics in rat
Type: in vivo, Wistar Han Rats
CONDITION NOTES: Wistar Han, plasma, IV 1 mg/kg
RECORDED METRIC: clearance (mL/min/kg)

compound="Cn1nc(NS(C)(=O)=O)c2c(Cl)ccc(-n3c([C@H](Cc4cc(F)cc(F)c4)NC(=O)Cn4nc(C(F)F)c5c4C(F)(F)[C@@H]4C[C@H]54)nc4nc(OCCC(F)(F)F)ccc4c3=O)c21 (atropisomer, axis not shown; (P)) [Example 1]" recorded_metric=clearance readout_value=2.64

* * *

TEST PROTOCOL: IV pharmacokinetics in dog
Assay type: in vivo, Beagle Dogs
CONDITION NOTES: Beagle, plasma; Dog, IV 1 mg/kg
RECORDED METRIC: half-life (h)

compound="Cn1nc(NS(C)(=O)=O)c2c(Cl)ccc(-n3c([C@H](Cc4cc(F)cc(F)c4)NC(=O)Cn4nc(C(F)F)c5c4C(F)(F)[C@@H]4C[C@H]54)nc4nc(OCCC(F)(F)F)ccc4c3=O)c21 (atropisomer, axis not shown; (P))" recorded_metric=half-life readout_value=8.6

* * *

TEST PROTOCOL: IV pharmacokinetics in mouse
Type: in vivo, male CD1 mice
CONDITION NOTES: male, CD1, plasma, IV 1 mg/kg
RECORDED METRIC: clearance (mL/min/kg)

compound="Cn1nc(NS(C)(=O)=O)c2c(Cl)ccc(-n3c([C@H](Cc4cc(F)cc(F)c4)NC(=O)Cn4nc(C(F)F)c5c4C(F)(F)[C@@H]4C[C@H]54)nc4nc(OCCC(F)(F)F)ccc4c3=O)c21 (atropisomer, axis not shown; (P)) [Example 1]" uom=mL/min/kg readout_value=0.5
